# Tested on: SK-OV-3
# assay-comment: Antitumor activity against human SKOV3 cells co-cultured with mesothelial cell monolayers using D-luciferin as substrate at 10 uM by firefly luciferase reporter gene assay relative to control
# Format: functional
observation-type: Ratio

• C=CS(=O)(=O)c1ccc(C(C)(C)C)cc1 = 1.05

Record for CC(C)(C(=O)N1CCCCC1)c1ccc(S(=O)(=O)/C=C/C#N)cc1 under target or system SK-OV-3: Ratio reported as 0.51

The compound CC(C)(C(=O)Nc1ccccc1)c1ccc(S(=O)(=O)/C=C/C#N)cc1 on SK-OV-3: Ratio was 0.55

Value sought: Ratio, system SK-OV-3, item CC(C)CNC(=O)C(C)(C)c1ccc(S(=O)(=O)/C=C/C#N)cc1 . Result: 0.47

The measured Ratio that CCOC(=O)/C=C/S(=O)(=O)c1ccc(C(C)(C)C)cc1 showed for SK-OV-3 is 0.67

Known value: SK-OV-3 Ratio of the compound CC(C)(C(=O)N1CCOCC1)c1ccc(S(=O)(=O)/C=C/C#N)cc1 equals 1.01

# value of Ratio, SK-OV-3, item CC(C)(C)c1ccc(S/C=C/C#N)cc1 = 0.92

----------
# System: A2780
# assay-comment: Antitumor activity against human A2780 cells co-cultured with mesothelial cell monolayers using D-luciferin as substrate at 10 uM by firefly luciferase reporter gene assay relative to control
# Format: functional
Assign labels as follows, please: YES for Ratio below 0.9; NO for Ratio equal to or exceeding 0.9.

Answered examples (3):
• CC(C)(C(=O)N1CCCCC1)c1ccc(S(=O)(=O)/C=C/C#N)cc1 = YES
• C=CS(=O)(=O)c1ccc(C(C)(C)C)cc1 = NO
• CC(C)(C)c1ccc(S(=O)(=O)/C=C/c2ccccc2)cc1 = NO

**Q:** # check: Ratio < 0.9 for CN1CCN(C(=O)C(C)(C)c2ccc(S(=O)(=O)/C=C/C#N)cc2)CC1
**A:** NO

**Q:** Dear reviewer, please state whether CC(C)(C)c1ccc(S(=O)(=O)/C=C/C#N)cc1 [BAY-11-7085] has Ratio strictly beneath 0.9.
**A:** YES

----------
# Tested on: SK-OV-3
# assay-comment: Antitumor activity against human SKOV3 cells co-cultured with mesothelial cell monolayers using D-luciferin as substrate at 10 uM by firefly luciferase reporter gene assay relative to control
# Type: functional
Each item that follows carries a reported Ratio.
Keep it simple and answer with nothing but the number.

Solved entries:
• CC(C)(C(=O)O)c1ccc(S(=O)(=O)/C=C/C#N)cc1 = 1.07
• CC(C)(C)c1ccc(S(=O)(=O)/C=C/C#N)cc1 [BAY-11-7085] = 0.32

// sample CC(C)(C)c1ccc(S(=O)(=O)/C=C/c2ccccc2)cc1 , its Ratio was 1.17

Entry under test: CC(C)(C(=O)NC1CCCCC1)c1ccc(S(=O)(=O)/C=C/C#N)cc1 . Its Ratio was 0.6

Consider C/C=C/S(=O)(=O)c1ccc(C(C)(C)C)cc1 . Its measured Ratio is 1.08

Entry COc1cccc(NC(=O)C(C)(C)c2ccc(S(=O)(=O)/C=C/C#N)cc2)c1 — recorded Ratio = 0.98

Entry under test: CN1CCN(C(=O)C(C)(C)c2ccc(S(=O)(=O)/C=C/C#N)cc2)CC1 . Its Ratio was 1.09

----------
# Test system: A2780
# assay-comment: Antitumor activity against human A2780 cells co-cultured with mesothelial cell monolayers using D-luciferin as substrate at 10 uM by firefly luciferase reporter gene assay relative to control
# Type: functional
observation-type: Ratio
When you answer, write just the number.

* C#CCNC(=O)C(C)(C)c1ccc(S(=O)(=O)/C=C/C#N)cc1 | 0.63
* CCOC(=O)/C=C/S(=O)(=O)c1ccc(C(C)(C)C)cc1 | 0.39
* CC(C)(C(=O)NCc1ccc(Cl)cc1)c1ccc(S(=O)(=O)/C=C/C#N)cc1 | 0.15
* CC(C)CNC(=O)C(C)(C)c1ccc(S(=O)(=O)/C=C/C#N)cc1 | 0.05
* CC(C)(C)c1ccc(S(=O)(=O)/C=C/C(N)=O)cc1 | 0.77

Looking up CC(C)(C)c1ccc(S/C=C/C#N)cc1 , I see its Ratio listed as 1.06

The reported value for COc1cccc(NC(=O)C(C)(C)c2ccc(S(=O)(=O)/C=C/C#N)cc2)c1 in terms of Ratio is 0.55
